# target: Y2 receptors (Homo sapiens, UniProt P49146)
# Construct: endogenous in cells; host or cells: KAN-Ts cells (membranes)
# assay notes: Radioligand binding assay ([125I]PYY, KAN-Ts cell membranes)
# applied conditions: Table 2, [125I]PYY 80 pM, average of results, read-out: IC50
Quick list: IC50 per entry.

| compound | scale unit | IC50 |
| --- | --- | --- |
| CCC(CC)C(=O)Nc1ccc(N2CCN(C(C(=O)N(CC)CC)c3ccc(Cl)cc3)CC2)c(F)c1 (stereo not shown) [Example 253] | nM | 102 |
| CCC(CC)C(=O)Nc1ccc(N2CCN(C(C(=O)N(CC)CC)c3cc(Br)ccc3F)CC2)c(F)c1 (stereo not shown) [Example 200] | nM | 15 |
| CCC(CC)C(=O)Nc1ccc(N2CCN(Cc3ccccc3)CC2)c(F)c1 [Example 268] | nM | 1400 |
| CCN(CC)C(=O)C(c1ccccc1)N1CCN(c2ccc(N3CCNS3(=O)=O)cc2F)CC1 (stereo not shown) [Example 174] | nM | 4000 |
| CCC(CC)C(=O)Nc1ccc(N2CCN(C(C(=O)N(CC)CC)c3ccccc3)CC2)c(C)c1 (stereo not shown) [Example 232] | nM | 210 |
| CCC(CC)C(=O)Nc1ccc(N2CCC(C(C(=O)N3CCCCC3)c3ccccc3)CC2)c(F)c1 (stereo not shown) [Example 215] | nM | 100 |
| CCOc1ccc(C(C(=O)N(CC)CC)N2CCN(c3ccc(NC(=O)C(CC)CC)cc3F)CC2)cc1 (stereo not shown) [Example 255] | nM | 44 |
| CCC(CC)C(=O)Nc1ccc(N2CCN(C(C(=O)N(CC)CC)c3ccccc3)CC2)nn1 (stereo not shown) [Example 183] | nM | 4500 |
| CCC(CC)C(=O)Nc1ccc(N2CCN(C(C(=O)N(CC)CC)c3ccc(F)c(F)c3)CC2)c(F)c1 (stereo not shown) [Example 201] | nM | 330 |
| CCC(CC)C(=O)Nc1ccc(N2CCN(C(C(=O)N3CCC(F)(F)C3)c3ccc(F)cc3)CC2)c(F)c1 (stereo not shown) [Example 198] | nM | 350 |
| CCC(CC)C(=O)Nc1ccc(N2CCN(C(C(=O)OC)c3ccccn3)CC2)c(F)c1 (stereo not shown) [Example 264] | nM | 550 |
| CCC(CC)C(=O)Nc1ccc(N2CCN(C(C(=O)N(CC)CC)c3ccccc3)CC2)nc1 (stereo not shown) [Example 203] | nM | 735 |
| CCN(Cc1ccccc1)C(=O)Cc1ccc(N2CCN(C(C(=O)N(CC)CC)c3ccccc3)CC2)c(F)c1 (stereo not shown) [Example 287] | nM | 2200 |
| CCC(CC)C(=O)Nc1ccc(N2CCC(C(C#N)c3ccccc3)CC2)c(F)c1 (stereo not shown) [Example 234] | nM | 280 |
| CCCCC(O)(c1ccccc1)C1CCN(c2ccc(NC(=O)C(CC)CC)cc2F)CC1 (stereo not shown) [Example 188] | nM | 200 |
| CCCNS(=O)(=O)N(CCC)c1ccc(N2CCN(C(C(=O)N(CC)CC)c3ccccc3)CC2)c(F)c1 (stereo not shown) [Example 172] | nM | 520 |
| C#Cc1cc(NC(=O)C(CC)CC)ccc1N1CCN(C(C(=O)N(CC)CC)c2ccccc2)CC1 (stereo not shown) [Example 240] | nM | 18 |
| CCC(CC)C(=O)Nc1ccc(N2CCN(C(C(=O)N(CC)CC)c3ccccc3)C(C)C2)c(F)c1 (stereo not shown) [Example 257] | nM | 68 |
| CCN(CC)C(=O)C(c1ccccc1)N1CCN(c2ccc(CC(=O)N3CCCCC3c3ccccc3)cc2F)CC1 (stereo not shown) [Example 275] | nM | 142 |
| CCC(CC)C(=O)Nc1ccc(N2CCN(C(C(=O)N(C)C)c3ccccc3)CC2)c(F)c1 (stereo not shown) [Example 292] | nM | 104 |
| CCC(CC)C(=O)Nc1ccc(C2CCN(C(C(=O)N(CC)CC)c3ccccc3)CC2)c(F)c1 (stereo not shown) [Example 194] | nM | 100 |
| CCN(CC)C(=O)C(c1ccccc1)C1CCN(c2ccc(NC(=O)c3ccnn3CC)cc2F)CC1 (stereo not shown) [Example 186] | nM | 210 |
| CCN(CC)C(=O)C(c1ccccc1)N1CCN(c2ccc(C(=O)OC)cc2F)CC1 (stereo not shown) [Example 185] | nM | 2400 |
| CCN(CC)C(=O)C(c1ccccc1)C1CCN(c2ccc(NC(=O)C3CC3)cc2F)CC1 (stereo not shown) [Example 229] | nM | 120 |
| CCC1CCCCN1C(=O)Cc1ccc(N2CCN(C(C(=O)N(CC)CC)c3ccccc3)CC2)c(F)c1 (stereo not shown) [Example 277] | nM | 320 |
| CCC(CC)C(=O)Nc1ccc(N2CCN(Cc3ccc4c(c3)OCO4)C(C(=O)OC)C2)c(F)c1 (stereo not shown) [Example 270] | nM | 3000 |
| CCC(CC)C(=O)Nc1ccc(N2CCC([C@@H](C(=O)N(CC)CC)c3ccccc3)CC2)c(F)c1 [Example 248] | nM | 13 |
| CCN(CC)C(=O)C(c1ccccc1)N1CCN(c2ccc(NC(=O)C3CCCC3)cn2)CC1 (stereo not shown) [Example 202] | nM | 900 |
| CCCN1CCN(c2ccc(N3CCN(C(C(=O)OCC)c4ccccc4)CC3)c(F)c2)S1(=O)=O (stereo not shown) [Example 179] | nM | 540 |
| CCC(CC)C(=O)Nc1ccc(N2CCN(C(C(=O)OC)c3ccc(O)cc3)CC2)c(F)c1 (stereo not shown) [Example 262] | nM | 162 |
| CCN(CC)C(=O)C(c1ccccc1)C1CCN(c2ccc(NC(=O)C3CCC3)cc2F)CC1 (stereo not shown) [Example 222] | nM | 63 |

* * *

# target: Y2 receptors (Homo sapiens)
# Construct: endogenous in cells; host or cells: KAN-Ts cells (membranes)
# Sequence (P49146 1-381): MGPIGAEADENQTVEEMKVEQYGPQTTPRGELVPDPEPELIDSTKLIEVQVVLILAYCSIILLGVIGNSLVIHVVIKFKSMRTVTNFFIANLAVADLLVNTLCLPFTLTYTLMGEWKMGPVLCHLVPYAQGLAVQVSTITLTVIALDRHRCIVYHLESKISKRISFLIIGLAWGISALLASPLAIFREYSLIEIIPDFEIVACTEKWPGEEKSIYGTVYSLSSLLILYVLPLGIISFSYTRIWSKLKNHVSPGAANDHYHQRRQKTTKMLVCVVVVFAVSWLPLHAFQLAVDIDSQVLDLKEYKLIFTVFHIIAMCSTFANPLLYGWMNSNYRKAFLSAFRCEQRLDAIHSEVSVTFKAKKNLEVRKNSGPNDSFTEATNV
# assay notes: Radioligand binding assay ([125I]PYY, KAN-Ts cell membranes)
# applied conditions: Table 2, [125I]PYY 80 pM, average of results, read-out: IC50
Quick list: IC50 per entry.
measured property: IC50 (nM)

| compound | comparator | quantitative result |
| --- | --- | --- |
| CCN(CC)C(=O)C(c1ccccc1)N1CCN(c2ccc(Nc3ccccn3)cc2F)CC1 (stereo not shown) | = | 380 |
| CCN(CC)C(=O)C(c1ccccc1)C1CCN(c2ccc(NC(=O)c3cccn3CC)cc2F)CC1 (stereo not shown) | = | 148 |
| CCOC(=O)C(c1ccccc1)N1CCN(c2ccc(N3CCN(C(=O)OC)S3(=O)=O)cc2F)CC1 (stereo not shown) | ≥ | 10000 |
| CCN(CC)C(=O)C(c1ccccc1)N1CCN(c2ccc(CC(=O)N3CCCC3C)cc2F)CC1 (stereo not shown) | = | 940 |

* * *

Quick list: log10 IC50 per entry.
# target: Y2 receptors (Homo sapiens)
# Construct: endogenous in cells; host or cells: KAN-Ts cells (membranes)
# Sequence (P49146 1-381): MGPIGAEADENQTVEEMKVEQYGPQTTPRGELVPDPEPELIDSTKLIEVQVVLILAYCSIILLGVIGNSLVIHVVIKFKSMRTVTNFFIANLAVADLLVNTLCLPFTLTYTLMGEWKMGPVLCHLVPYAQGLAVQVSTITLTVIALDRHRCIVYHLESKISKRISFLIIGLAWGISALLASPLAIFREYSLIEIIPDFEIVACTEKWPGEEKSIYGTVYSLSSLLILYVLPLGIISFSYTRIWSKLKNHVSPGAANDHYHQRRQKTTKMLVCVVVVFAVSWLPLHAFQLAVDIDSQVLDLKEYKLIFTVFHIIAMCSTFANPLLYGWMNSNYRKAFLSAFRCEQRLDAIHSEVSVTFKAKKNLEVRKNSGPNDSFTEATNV
# assay notes: Radioligand binding assay ([125I]PYY, KAN-Ts cell membranes)
# applied conditions: Table 1, [125I]PYY 80 pM, average of results, read-out: IC50
measured property: log10 IC50 (log10 of the value in nM)

| compound | log10 IC50 |
| --- | --- |
| CCN(CC)C(=O)C(c1ccccc1)N1CCN(c2ccc(NC(=O)CC3CC3)cc2F)CC1 (stereo not shown) | 2.48 |
| CCN(CC)C(=O)C(c1ccccc1)C1CCN(c2ccc(NC(=O)c3cc(C)ccc3C)cc2F)CC1 (stereo not shown) | 2.37 |
| CCN(CC)C(=O)C(c1ccccc1)C1CCN(c2ccc(NC(=O)Cc3c(C)noc3C)cc2F)CC1 (stereo not shown) | 1.15 |
| CCC(CC)C(=O)Nc1cc(Cl)c(N2CCN(C(C(=O)OC)c3ccccc3)CC2)c(Cl)c1 (stereo not shown) | 1.89 |
| CCN(CC)C(=O)C(c1ccccc1)N1CCN(c2ccc(NC(=O)C(C)(C)c3ccc(Cl)cc3)cc2F)CC1 (stereo not shown) | 1.86 |
| CCCCC(CC)C(=O)Nc1ccc(N2CCN(C(C(=O)NCC)c3ccccc3)CC2)c(F)c1 (stereo not shown) | 3.02 |
| CCN(CC)C(=O)C(c1ccccc1)N1CCN(c2ccc(NC(=O)C3C(C)(C)C3(C)C)cc2F)CC1 (stereo not shown) | 2.23 |
| CCNC(=O)C(c1ccccc1)C1CCN(c2ccc(NC(=O)C(CC)CC)cc2F)CC1 (stereo not shown) | 2.05 |
| COC(=O)C(c1ccccc1)N1CCN(c2ccc(NC(=O)c3ccccc3OC)cc2F)CC1 (stereo not shown) | 3.11 |
| CCNC(=O)C(c1ccccc1)C1CCN(c2ccc(NC(=O)C(C)C)cc2)CC1 (stereo not shown) | 3.60 |
| CCN(CC)C(=O)C(c1ccccc1)C1CCN(c2ccc(NC(=O)c3ccccc3N)cc2F)CC1 (stereo not shown) | 2.41 |
| CCNC(=O)C(c1ccccc1)N1CCN(c2ccc(NC(=O)Cc3c(C)noc3C)cc2F)CC1 (stereo not shown) | 2.25 |
| CCNC(=O)C(c1ccccc1)N1CCN(c2ccc(C(=O)NC(CC)CC)cc2F)CC1 (stereo not shown) | 3.76 |
| CCN(CC)C(=O)C(c1ccccc1)N1CCN(c2ccc(NC(=O)c3ccnn3CC)cc2F)CC1 (stereo not shown) | 1.54 |
| COC(=O)C(c1ccccc1)N1CCN(c2ccc(NC(=O)c3ccccc3C(C)C)cc2)CC1 (stereo not shown) | 3.15 |
| COC(=O)C(c1ccccc1)N1CCN(c2ccc(NC(=O)c3ccco3)cc2)CC1 (stereo not shown) | 4.30 |

Values compiled from patent US8183239B2.
